The reported numbers originate from paper PMC7703486.

# systemTested: CDK7/cyclin H (Homo sapiens)
# Sequence (P50613 whole entry): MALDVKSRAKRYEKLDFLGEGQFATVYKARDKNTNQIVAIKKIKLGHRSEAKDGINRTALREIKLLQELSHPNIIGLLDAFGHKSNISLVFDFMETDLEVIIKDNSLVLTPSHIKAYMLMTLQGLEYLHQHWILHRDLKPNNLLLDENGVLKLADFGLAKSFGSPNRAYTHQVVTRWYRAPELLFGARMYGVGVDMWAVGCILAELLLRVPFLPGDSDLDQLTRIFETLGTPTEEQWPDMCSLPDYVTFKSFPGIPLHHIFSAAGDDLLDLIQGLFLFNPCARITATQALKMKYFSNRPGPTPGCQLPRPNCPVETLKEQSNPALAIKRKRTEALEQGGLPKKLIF
# Sequence (P51946 whole entry partner): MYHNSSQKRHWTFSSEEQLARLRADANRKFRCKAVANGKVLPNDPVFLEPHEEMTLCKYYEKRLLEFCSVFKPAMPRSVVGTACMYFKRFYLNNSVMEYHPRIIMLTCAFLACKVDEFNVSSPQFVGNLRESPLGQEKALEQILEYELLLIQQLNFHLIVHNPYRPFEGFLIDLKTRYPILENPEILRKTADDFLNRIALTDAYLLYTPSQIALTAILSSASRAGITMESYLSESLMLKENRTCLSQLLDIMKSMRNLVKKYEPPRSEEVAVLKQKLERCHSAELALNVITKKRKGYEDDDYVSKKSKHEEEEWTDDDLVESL
# experimentalProtocol: Biochemical assay CDK7/cyclin H
resultType: IC50 (nM)
// units = nM; emit number, no label

Q: Answer with the recorded IC50 of Cc1cc(S(=O)(=O)NCCOCCOCCOCCOCCNc2cccc3c2C(=O)N(C2CCC(=O)NC2=O)C3=O)ccc1Nc1ncc(Br)c(Nc2cccc(F)c2C(N)=O)n1 (stereo not shown) only.
Ans: 2620

---

# systemTested: Aurora A (Homo sapiens, UniProt O14965)
# Sequence (O14965 whole entry): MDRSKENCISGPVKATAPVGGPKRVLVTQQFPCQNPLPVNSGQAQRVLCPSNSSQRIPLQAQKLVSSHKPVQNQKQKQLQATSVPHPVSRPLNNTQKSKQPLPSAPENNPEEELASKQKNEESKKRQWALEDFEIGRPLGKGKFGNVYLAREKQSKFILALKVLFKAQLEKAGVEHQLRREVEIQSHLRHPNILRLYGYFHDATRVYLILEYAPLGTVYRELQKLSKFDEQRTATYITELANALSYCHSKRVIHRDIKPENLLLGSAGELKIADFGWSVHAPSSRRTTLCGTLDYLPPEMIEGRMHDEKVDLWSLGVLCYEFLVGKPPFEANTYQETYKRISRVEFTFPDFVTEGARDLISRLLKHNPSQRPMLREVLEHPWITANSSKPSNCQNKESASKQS
# experimentalProtocol: Biochemical activity assay Aurora A
resultType: IC50 (nM)
Give just the number in nM; leave the unit off.

Q: Give IC50 for Cc1cc(S(=O)(=O)NCCOCCOCCOCCOCCNc2cccc3c2C(=O)N(C2CCC(=O)NC2=O)C3=O)ccc1Nc1ncc(Br)c(Nc2cccc(F)c2C(N)=O)n1 (stereo not shown)
Ans: 205
